# System: Caco-2 cells
# experiment-summary: C1-BODIPY-C12 fatty acid uptake inhibition in Caco-2 cells
# Type: cell-based, human
# cond: Homo sapiens, Caco-2, read-out: Caco-2 IC50
measured-metric: IC50
Answer format: number, then unit.

Examples from the recorded data:
compound="Oc1c(C2=NCCNC(C(F)(F)F)=C2)ccc2ccccc12 [CB-6]" experimental_system="Caco-2 cells" measured_metric=IC50 result="4.93 µM"
compound="O=c1cc(-c2ccc([N+](=O)[O-])cc2)nc2c(-c3ccc(Cl)cc3)c(Cc3ccccc3)[nH]n12 [CB-5]" experimental_system="Caco-2 cells" measured_metric=IC50 result="6.34 µM"
compound="O=C1C=CC=CC1=C1NNC2(S1)C(=O)Nc1ccc(Br)cc12 (centres unmarked) [CB-16]" experimental_system="Caco-2 cells" measured_metric=IC50 result="6.66 µM"
compound="OCC(CCc1c[nH]c2ccccc12)c1c[nH]c2ccccc12 (centres unmarked) [NCI-3, 2,4-bis(1H-indol-3-yl)butan-1-ol]" experimental_system="Caco-2 cells" measured_metric=IC50 result="29.2 µM"

Consider the record given below.
For the compound shown here, COc1cc(/C=C2/SC(=S)N(c3cccc(Cl)c3)C2=O)cc(Br)c1O [CB-2] , give the reported IC50.
3.99 µM
